Entry source: the supplement of paper PMC6555819

# Tested on: PPARa:RXRa (NR concentration 270 nM, RXRa partner concentration 90 nM)
# Protocol description: PBM binding z-score (relative to random genomic background probes); higher = stronger binding; sequences stand for … in GC…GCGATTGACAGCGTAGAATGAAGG
If the reported PBM binding z-score equals or exceeds 3, assign 1 (yes). If not, assign 0 (no).

These recorded examples may help you get a feel for the data.
# Sequence data, Classification
rows = [
    ("AGAATGAGGTTATCAAGATCAGGGAATTGCGGTC", "0 (no)"),
    ("CCGACTGGGGGAAGGTTACCATAACGCACAGCCA", "0 (no)"),
    ("CTAACTAGGTCATTGACAGGACAGTGAATAGTAA", "1 (yes)"),
    ("ATCGAAAGGTCGGAGGTGAGTATACCCACCCGAA", "1 (yes)"),
    ("GGAAAGAGGGCAAGTTGATAGCAGAGTTTGATGG", "0 (no)"),
]

Moving on to another sequence below.
Ask: Item GCTTACGGGTCAAAGTTTATAGCATGAATAGAAT with PBM binding z-score of 3 or above?
Result: 1 (yes)

* * *

# System: PPARg homodimer (NR concentration 180 nM)
# Protocol description: PBM binding z-score (relative to random genomic background probes); higher = stronger binding; sequences stand for … in GC…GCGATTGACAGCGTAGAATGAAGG
If the reported PBM binding z-score equals or exceeds 1, assign class 1. If not, assign class 0.

# Sequence data, Classification
records = [
    ("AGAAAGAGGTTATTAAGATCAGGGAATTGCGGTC", "class 1"),
    ("CCGACTGGGGCATTAGGTTACCATAAGCCAGCCC", "class 0"),
]

Ask: Item TCTCGGAGCACACGAAGGTCAGAGCTTTCCAGAG with PBM binding z-score of 1 or above?
Result: class 0

Ask: Item TTGCCTAGGTCAGATCGGGCCAGTATACGCTATA with PBM binding z-score of 1 or above?
Result: class 0

Ask: Item GCGACTGGGGCAAATCAGGTTACCATAAGGTTGG with PBM binding z-score of 1 or above?
Result: class 0

Ask: Item GGAACGAGGGCATTCGAGTTGATCGCATGGCGAT with PBM binding z-score of 1 or above?
Result: class 0

* * *

PBM binding z-score values, listed per item
# Test system: PPARg:RXRa 90nM:30nM, anti-RXR (NR concentration 90 nM, RXRa partner concentration 30 nM)
# Protocol description: PBM binding z-score (relative to random genomic background probes); higher = stronger binding; sequences stand for … in GC…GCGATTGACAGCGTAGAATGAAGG
Would you mind answering with just the numeric figure?

Worked examples follow.
# Sequence data, System under test, PBM binding z-score
records = [
    ("TCCTGTAGATCAACAGGAGGTTAAGAAAGATCGA", "PPARg:RXRa 90nM:30nM, anti-RXR (NR concentration 90 nM, RXRa partner concentration 30 nM)", 1.49),
    ("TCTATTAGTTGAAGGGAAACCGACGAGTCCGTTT", "PPARg:RXRa 90nM:30nM, anti-RXR (NR concentration 90 nM, RXRa partner concentration 30 nM)", 3.16),
    ("ATCTCGAGGTAAAGATAGTTCAGTGAATGCAAAT", "PPARg:RXRa 90nM:30nM, anti-RXR (NR concentration 90 nM, RXRa partner concentration 30 nM)", 0.23),
    ("TCTTGTAGATCAAGGAGGTTAAGAAAGCCTGAGT", "PPARg:RXRa 90nM:30nM, anti-RXR (NR concentration 90 nM, RXRa partner concentration 30 nM)", 1.77),
]

Next, consider the following sequence.
Ask: Write down the reported PBM binding z-score of TCTTGTAGATCAAGCAGGTTATGAAAGCCTGAGT , test system: PPARg:RXRa 90nM:30nM, anti-RXR (NR concentration 90 nM, RXRa partner concentration 30 nM).
Result: 1.89
